B1: KLHDC10 (parent)
chain: FGGTGIPFGESNGNGVHVCNVKYK

Variants of: B1
assay_summary: protein stability index of a GFP-peptide fusion (GPS, HEK-293T) (PSI 1-6); higher = more stable;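 further: lentivirally expressed fusions sorted by FACS into six bins by GFP to DsRed ratio, PSI derived from sequencing read proportions per bin multiplied by bin number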
condition_label: c terminus: a fixed tail appended
Binary classification by protein stability index, with 2 as an inclusive lower bound for yes; all other cases are no.

K24I no

// query Is protein stability index at least 2? Consider G2L
// result yes

// query Reported protein stability index at or above 2? Y23V
// result yes

// query Kindly determine if protein stability index recorded for V18L is above or exactly 2.
// result no

// query Does V18W have a reported protein stability index of at least 2?
// result no

// query Please indicate if the recorded protein stability index for E10N meets or exceeds 2.
// result yes
